- system tested: T1, mouse TopBP1 BRCT4/5 (553-749), untagged (mouse, UniProt Q6ZQF0 553-749)
- T1 sequence (looked up): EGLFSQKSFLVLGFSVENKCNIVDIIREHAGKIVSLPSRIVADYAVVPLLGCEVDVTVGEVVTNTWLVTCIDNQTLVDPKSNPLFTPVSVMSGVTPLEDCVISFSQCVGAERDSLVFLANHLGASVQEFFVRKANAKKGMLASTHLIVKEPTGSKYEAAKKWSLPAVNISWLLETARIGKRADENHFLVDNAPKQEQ
- test: fluorescence polarisation
Square brackets hold non-standard residues; d marks the D form. * marks the point of attachment. FITC = O=C1OC2(c3ccc(O)cc3Oc3cc(O)ccc32)c2ccc(NC(=S)*)cc21; pS = N[C@@H](COP(=O)(O)O)C(=O)O
readout name: pKd
Give bare numbers, as −log10 of the molar value.

Note to self: pKd recorded for {FITC}-DTDFVPP[pS]PEEII-NH2 [FITC-labelled BLM pSer304 peptide (FITC-DTDFVPPpSPEEII-NH2)] was 5.22
